system: UO-31 renal; test: NCI tumour cell line growth inhibition, 48 h
endpoint: TGI (µM)
Give bare numbers, in µM.

Before answering, review these 2 worked examples.
Task: Param item = O=[N+]([O-])c1cc([N+](=O)[O-])c(Cl)c(Cl)c1Cl ; retrieve measured TGI.
Result: 3.08

Task: Fill in the blank: the reported TGI of CC[C@@]1(OC(=O)CN)C(=O)OCc2c1cc1n(c2=O)Cc2cc3cc4c(cc3nc2-1)OCO4 is ____.
Result: 0.111

Alright, here's another compound for you.
Task: Which TGI reading was recorded for the compound COc1ccc(Cl)cc1Nc1nc(C(F)(F)F)ccc1C(=O)N/N=C/c1ccc([N+](=O)[O-])cc1 ?
Result: 5.97

----------
tested on: M14 melanoma; assay: NCI tumour cell line growth inhibition, 48 h
endpoint: TGI

Sample answers from the record:
Task: Reported TGI for CC1(C)OCC2(CO1)CSCCCSCC1(COC(C)(C)OC1)CSCCCSC2 : what is it?
Result: > 100 µM

Task: Any idea what its TGI is? The compound is O=C1c2ccccc2C(=O)C2C1C1C(=O)c3ccccc3C(=O)C21 (stereo unspecified)
Result: > 100 µM

Task: Which TGI is reported for this compound? C[C@@]12c3c4ccc(C=O)c3Oc3ccc(C=O)c(c31)Oc1c(C=O)ccc(c12)O4
Result: > 100 µM

Fill in TGI for each of the 2 compounds listed.
1. CC1(C)CC(=O)/C(=C/C2CCNC2=S)C(=O)N1 (stereo unspecified)
2. O=C1NCN(c2ccccc2)C12CCN(CCc1ccc3[nH]c(=S)[nH]c3c1)CC2

Result:
1. > 100 µM
2. 58.3 µM

Task: What does the record list as TGI for COC1(C(C)(C)C)C=C(C(C)(C)C)P(=O)(O)O1 (stereo unspecified) ?
Result: > 100 µM

----------
system: EKVX NSCLC; test: NCI tumour cell line growth inhibition, 48 h
endpoint: TGI

Guide cases for TGI, answers given:
Task: For the record CC(C)(C)[Si](C)(C)OCC1CCC(n2cnc3c(=O)[nH]cnc32)O1 (stereo unspecified) , what value of TGI is listed for EKVX NSCLC?
Result: > 100 µM

Task: Item: O=C(O)CN=C(C(=NCC(=O)O)c1ccccc1)c1ccccc1 Test system: EKVX NSCLC Read-out: TGI Value: ?
Result: > 100 µM

Task: Provide value of TGI for this record tested with EKVX NSCLC: COc1ccc(/C(CCl)=C(\Nc2ccccc2)c2ccc(OC)c(OC)c2)cc1OC
Result: > 100 µM

Task: Recall the recorded TGI for Nc1ccc(-c2ncc3cc(-c4cccc(-c5cc6cnc(-c7ccc(N)cc7)nc6c6ccccc56)c4)c4ccccc4c3n2)cc1 with EKVX NSCLC and state it.
Result: > 100 µM

Task: Form field: TGI recorded for COc1ccc(C2=C(Cl)c3cc(OC)c(OC)cc3C2=O)cc1OC with EKVX NSCLC (enter value)
Result: 37.9 µM

Task: # returns recorded TGI (system: EKVX NSCLC) for CC(=O)OCCOCNC(=S)N/N=C/c1ccc2ccccc2n1
Result: > 100 µM

Task: Look up TGI with EKVX NSCLC for this compound: N#Cc1nc(C2CC2)oc1N
Result: > 100 µM

Task: Return TGI measured with EKVX NSCLC given this compound: Cc1ccc(N/C(Sc2ccccc2)=C(/C(Cl)=C(Cl)Cl)[N+](=O)[O-])c(C)c1
Result: 65.1 µM

# batch: return TGI for each of the 2 compounds below
1. COc1ccc(CN2C(=O)C(Cc3cc(OC)c(OC)c(C)c3OC)NC(=O)/C2=C/c2cc(OC)c(OC)c(C)c2OC)cc1 (stereo unspecified)
2. CC1=CCC2(C#N)CCC1C2O (stereo unspecified)

Result:
> 100 µM
> 100 µM

Task: # get_value(readout= TGI, system= EKVX NSCLC) for CC(N=C(N)N)C(=O)O (stereo unspecified)
Result: > 100 µM
